Cited source: paper PMC3510010

# Tested System: POS-1(1-206) (Caenorhabditis elegans, UniProt G5EF15 1-206)
# Sequence (G5EF15 1-206): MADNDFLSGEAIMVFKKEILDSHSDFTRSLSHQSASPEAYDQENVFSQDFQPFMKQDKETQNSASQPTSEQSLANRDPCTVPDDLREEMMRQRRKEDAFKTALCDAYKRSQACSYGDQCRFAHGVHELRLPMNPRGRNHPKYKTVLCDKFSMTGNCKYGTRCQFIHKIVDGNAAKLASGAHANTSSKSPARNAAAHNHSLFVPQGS
# Experiment Notes: F-EMSA
Readout Name: Kd (nM)
Give the value in nM but do not write nM after it.

Consider the binder shown here: UUUUUCUCCCUCUAGACUAAUAUUGUAAGCU (ssRNA) [∆5′ PRE] What is its recorded Kd? 55
